Cited source for all entries: ChEMBL document CHEMBL1287777

TEST_SYSTEM: Carbonic anhydrase 9 (Homo sapiens, UniProt Q16790)
PROTOCOL_DETAILS: Inhibition of human recombinant CA9 catalytic domain by stopped-flow CO2 hydration method
So basically: is Ki under 60 nM? Then Criterion met. Not under? Then Criterion not met.

MOL: CCC(=O)c1cc2ccc(=O)oc2cc1O
TEST_SYSTEM: Carbonic anhydrase 9 (Homo sapiens, UniProt Q16790)
CLASS_ASSIGNMENT: Criterion not met
//
MOL: CC(=O)c1c(OCCC23CC4CC(CC(C4)C2)C3)ccc2ccc(=O)oc12
TEST_SYSTEM: Carbonic anhydrase 9 (Homo sapiens, UniProt Q16790)
CLASS_ASSIGNMENT: Criterion not met
//
MOL: CC(=O)c1cc2ccc(=O)oc2cc1OCCC12CC3CC(CC(C3)C1)C2
TEST_SYSTEM: Carbonic anhydrase 9 (Homo sapiens, UniProt Q16790)
CLASS_ASSIGNMENT: Criterion not met
//
MOL: CCOc1ccc2ccc(=O)oc2c1C(C)=O
TEST_SYSTEM: Carbonic anhydrase 9 (Homo sapiens, UniProt Q16790)
CLASS_ASSIGNMENT: Criterion not met
//
MOL: CCC(=O)c1c(OC)ccc2ccc(=O)oc12
TEST_SYSTEM: Carbonic anhydrase 9 (Homo sapiens, UniProt Q16790)
CLASS_ASSIGNMENT: Criterion met
//
MOL: CC(=O)c1c(OCc2ccccc2)ccc2ccc(=O)oc12
TEST_SYSTEM: Carbonic anhydrase 9 (Homo sapiens, UniProt Q16790)
CLASS_ASSIGNMENT: Criterion not met
//
MOL: CCOc1cc2oc(=O)ccc2cc1C(C)=O
TEST_SYSTEM: Carbonic anhydrase 9 (Homo sapiens, UniProt Q16790)
CLASS_ASSIGNMENT: Criterion not met
//
MOL: COc1cc2oc(=O)ccc2cc1C(C)=O
TEST_SYSTEM: Carbonic anhydrase 9 (Homo sapiens, UniProt Q16790)
CLASS_ASSIGNMENT: Criterion not met
//
MOL: CC(=O)c1cc2ccc(=O)oc2cc1OCc1ccccc1
TEST_SYSTEM: Carbonic anhydrase 9 (Homo sapiens, UniProt Q16790)
CLASS_ASSIGNMENT: Criterion not met
//
MOL: CCCCOc1cc2oc(=O)ccc2cc1C(C)=O
TEST_SYSTEM: Carbonic anhydrase 9 (Homo sapiens, UniProt Q16790)
CLASS_ASSIGNMENT: Criterion not met
//
MOL: CC(=O)c1c(O)ccc2ccc(=O)oc12
TEST_SYSTEM: Carbonic anhydrase 9 (Homo sapiens, UniProt Q16790)
CLASS_ASSIGNMENT: Criterion not met
//
MOL: CCCOc1cc2oc(=O)ccc2cc1C(C)=O
TEST_SYSTEM: Carbonic anhydrase 9 (Homo sapiens, UniProt Q16790)
CLASS_ASSIGNMENT: Criterion not met
//
MOL: COc1ccc2ccc(=O)oc2c1C(C)=O
TEST_SYSTEM: Carbonic anhydrase 9 (Homo sapiens, UniProt Q16790)
CLASS_ASSIGNMENT: Criterion not met
//
MOL: CCOc1ccc2ccc(=O)oc2c1C(=O)CC
TEST_SYSTEM: Carbonic anhydrase 9 (Homo sapiens, UniProt Q16790)
CLASS_ASSIGNMENT: Criterion met
//
MOL: CCCOc1ccc2ccc(=O)oc2c1C(C)=O
TEST_SYSTEM: Carbonic anhydrase 9 (Homo sapiens, UniProt Q16790)
CLASS_ASSIGNMENT: Criterion met
